Test system: pLAI reporter virus
protocol.details: microbe, parasite or virus in culture
Assay type: cell-based, HIV
assay.context: Human immunodeficiency virus 1, MT4, 72 h, read-out: RLUC CCM EC50
Answer each item with its documented pEC50.
Expect pEC50 as a plain number equal to -log10 of the molar concentration.

Can you look up the measured pEC50 of `COC1=NO[C@@]2(CC[C@H](C)N3C[C@H]2n2cc(C(=O)NCc4c(F)cc(F)cc4F)c(=O)c(O)c2C3=O)[C@H]1C` for me?
9.70

Can you look up the measured pEC50 of `C[C@H]1CC[C@]2(CC(OCC(F)F)=NO2)[C@H]2CN1C(=O)c1c(O)c(=O)c(C(=O)NCc3ccc(F)cc3F)cn12` for me?
9.30

Can you look up the measured pEC50 of C[C@H]1CC[C@]2(COC(Cc3ccccc3)O2)[C@H]2CN1C(=O)c1c(O)c(=O)c(C(=O)NCc3c(F)cc(F)cc3F)cn12 (stereo partly drawn) for me?
8.59

Can you look up the measured pEC50 of `C[C@H]1CC[C@]2(CO2)[C@H]2CN1C(=O)c1c(O)c(=O)c(C(=O)NCc3c(F)cc(F)cc3F)cn12` for me?
9.52

Can you look up the measured pEC50 of `C[C@H]1CC[C@@]2(CC(=O)N(C)C2)[C@H]2CN1C(=O)c1c(O)c(=O)c(C(=O)NCc3c(F)cc(F)cc3F)cn12` for me?
8.11

Can you look up the measured pEC50 of `C[C@H]1CC[C@]2(CC(=O)N(CCc3ccccc3)O2)[C@H]2CN1C(=O)c1c(O)c(=O)c(C(=O)NCc3c(F)cc(F)cc3F)cn12` for me?
9.52

Can you look up the measured pEC50 of `C[C@H]1CC[C@]2(CC(=O)N(C)O2)[C@H]2CN1C(=O)c1c(O)c(=O)c(C(=O)NCc3c(F)cc(F)cc3F)cn12` for me?
9.30

Can you look up the measured pEC50 of O=C(NCc1ccc(F)cc1F)c1cn2c(c(O)c1=O)C(=O)N1CCCC3(CC3)[C@H]2C1 [Reference Compound C, reference compound] for me?
9.60

Can you look up the measured pEC50 of `C[C@H]1CC[C@]2(CC(CF)=NO2)[C@H]2CN1C(=O)c1c(O)c(=O)c(C(=O)NCc3c(F)cc(F)cc3F)cn12` for me?
9.70

Can you look up the measured pEC50 of `COC1=NO[C@@]2(CC[C@H](C)N3C[C@H]2n2cc(C(=O)NCc4c(F)cc(F)cc4F)c(=O)c(O)c2C3=O)[C@H]1O` for me?
9.52

Can you look up the measured pEC50 of `C[C@H]1CCC2(OCCO2)[C@H]2CN1C(=O)c1c(O)c(=O)c(C(=O)NCc3c(F)cc(F)cc3F)cn12` for me?
9.70

Can you look up the measured pEC50 of CO[C@H]1CS[C@]2(CC[C@H](C)N3C[C@H]2n2cc(C(=O)NCc4c(F)cc(F)cc4F)c(=O)c(O)c2C3=O)O1 (single isomer, unassigned) [170 (peak 1)] for me?
9.52

Can you look up the measured pEC50 of `C[C@H]1CC[C@]2(CC(C3CC3)=NO2)[C@H]2CN1C(=O)c1c(O)c(=O)c(C(=O)NCc3ccc(F)cc3F)cn12` for me?
9.10

Can you look up the measured pEC50 of CC1=NO[C@]2(CC[C@H](C)N3C[C@H]2n2cc(C(=O)NCc4ccc(F)cc4F)c(=O)c(O)c2C3=O)C1O (stereo partly drawn) for me?
8.55

Can you look up the measured pEC50 of `C[C@H]1CC[C@@]2(CC(=O)N(Cc3ccc(F)cc3)O2)[C@H]2CN1C(=O)c1c(O)c(=O)c(C(=O)NCc3c(F)cc(F)cc3F)cn12` for me?
8.70

Can you look up the measured pEC50 of `C[C@H]1CC[C@]2(COC(F)(F)O2)[C@H]2CN1C(=O)c1c(O)c(=O)c(C(=O)NCc3c(F)cc(F)cc3F)cn12` for me?
9.70

Can you look up the measured pEC50 of `C[C@H]1CC[C@]2(CC(=O)N(Cc3ccc(C#N)cc3)O2)[C@H]2CN1C(=O)c1c(O)c(=O)c(C(=O)NCc3c(F)cc(F)cc3F)cn12` for me?
9.40

Can you look up the measured pEC50 of `C[C@H]1CC[C@]2(CC(OCC(F)(F)F)=NO2)[C@H]2CN1C(=O)c1c(O)c(=O)c(C(=O)NCc3ccc(F)cc3F)cn12` for me?
10.00

Can you look up the measured pEC50 of `C[C@H]1CC[C@]2(Cc3ccccc3O2)[C@H]2CN1C(=O)c1c(O)c(=O)c(C(=O)NCc3c(F)cc(F)cc3F)cn12` for me?
10.00

Can you look up the measured pEC50 of `C[C@H]1CC[C@]2(CC(=O)N(Cc3cccc4ccccc34)O2)[C@H]2CN1C(=O)c1c(O)c(=O)c(C(=O)NCc3c(F)cc(F)cc3F)cn12` for me?
9.70

Can you look up the measured pEC50 of `C[C@H]1CC[C@]2(COCO2)[C@H]2CN1C(=O)c1c(O)c(=O)c(C(=O)NCc3c(F)cc(F)cc3F)cn12` for me?
9.70

Can you look up the measured pEC50 of O=C(NCc1ccc(F)cc1F)c1cn2c(c(O)c1=O)C(=O)N1CCCC[C@H]2C1 [Reference Compound B] for me?
9.55

Can you look up the measured pEC50 of `C[C@H]1CC[C@]2(CC(c3ccccn3)=NO2)[C@H]2CN1C(=O)c1c(O)c(=O)c(C(=O)NCc3ccc(F)cc3F)cn12` for me?
8.82

Can you look up the measured pEC50 of `CSC1=NO[C@@]2(CC[C@H](C)N3C[C@H]2n2cc(C(=O)NCc4c(F)cc(F)cc4F)c(=O)c(O)c2C3=O)C1` for me?
8.82
